# study system: EGFR (Homo sapiens)
# Construct: endogenous in cells; host or cells: A431 cells (lysate, captured with SUMO1 anti-EGFR antibody)
# Sequence (P00533 25-1210): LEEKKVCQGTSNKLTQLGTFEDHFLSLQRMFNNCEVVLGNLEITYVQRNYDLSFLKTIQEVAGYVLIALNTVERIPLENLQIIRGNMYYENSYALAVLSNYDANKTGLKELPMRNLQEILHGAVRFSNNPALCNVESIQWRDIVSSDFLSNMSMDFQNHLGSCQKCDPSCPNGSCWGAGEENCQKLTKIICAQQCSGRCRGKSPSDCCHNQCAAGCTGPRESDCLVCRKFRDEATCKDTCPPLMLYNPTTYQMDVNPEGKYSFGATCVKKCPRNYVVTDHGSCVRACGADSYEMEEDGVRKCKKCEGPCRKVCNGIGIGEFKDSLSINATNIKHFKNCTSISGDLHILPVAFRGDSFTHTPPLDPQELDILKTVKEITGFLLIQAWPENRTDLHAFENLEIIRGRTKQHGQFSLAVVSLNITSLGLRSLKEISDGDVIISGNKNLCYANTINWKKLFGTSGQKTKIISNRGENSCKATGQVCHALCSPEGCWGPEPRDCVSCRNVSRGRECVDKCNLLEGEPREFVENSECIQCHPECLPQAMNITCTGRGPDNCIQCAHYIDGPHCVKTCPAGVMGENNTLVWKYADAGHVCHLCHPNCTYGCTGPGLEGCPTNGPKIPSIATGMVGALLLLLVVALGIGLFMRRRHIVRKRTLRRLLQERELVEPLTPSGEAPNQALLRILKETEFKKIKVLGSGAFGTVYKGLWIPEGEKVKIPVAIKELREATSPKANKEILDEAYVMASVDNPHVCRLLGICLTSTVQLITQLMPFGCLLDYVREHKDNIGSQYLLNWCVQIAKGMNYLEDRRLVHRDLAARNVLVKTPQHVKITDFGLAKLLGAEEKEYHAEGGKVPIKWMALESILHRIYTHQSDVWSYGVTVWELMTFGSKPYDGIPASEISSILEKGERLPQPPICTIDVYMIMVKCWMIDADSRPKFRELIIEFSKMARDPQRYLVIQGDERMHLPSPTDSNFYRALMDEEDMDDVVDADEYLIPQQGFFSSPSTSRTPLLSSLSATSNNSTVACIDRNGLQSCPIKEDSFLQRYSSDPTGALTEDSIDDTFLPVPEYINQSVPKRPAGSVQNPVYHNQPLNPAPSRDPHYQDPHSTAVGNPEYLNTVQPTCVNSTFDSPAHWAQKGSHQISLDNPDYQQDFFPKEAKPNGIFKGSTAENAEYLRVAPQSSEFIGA
# method notes: Biochemical EGFR Assay
# Parameters: concentration or dose not given beside the values
hey, just use rule met if measured Biochem EGFR % Inhibition (P.167) is less than -10%, otherwise rule not met

Lab note: confirm whether the reported Biochem EGFR % Inhibition (P.167) for this compound is below -10%, equality not counting. compound: O=C1Nc2ccc(S(=O)(=O)N3CCOCC3)cc2C1=Cc1ccc([N+](=O)[O-])cc1
rule met

Continue with O=C1Nc2ccc(S(=O)(=O)N3CCOCC3)cc2C1=Cc1ccc(Cl)cc1Cl
rule not met

Continue with Cc1c(Br)ccc2c1C(=Cc1cc(Br)cc(Br)c1O)C(=O)N2
rule not met

Continue with COc1cccc(C=C2C(=O)Nc3c(Br)cc(Br)cc32)c1
rule not met

Continue with Cc1c(Br)cc(Br)c2c1C(=Cc1ccccc1Br)C(=O)N2
rule met

---

# Tested on: FLK-1 receptor
# method notes: FLK-1 Assay (cellular/catalytic ELISA, VEGF-stimulated phosphotyrosine)
# Type: cell-based
# Set-up: concentration or dose not given beside the values
# test context: protocol P.110
Please provide measured Flk Kinase % Inhibition (P.110) for the entries that follow.
Record the value in %, omitting the unit from your answer.

Give its Flk Kinase % Inhibition (P.110) value. Item: O=C1Nc2ccc(I)cc2C1=Cc1cccc(Oc2cccc(C(F)(F)F)c2)c1 [10737/B11]
12.8

Continue with Cc1c(Br)ccc2c1C(=Cc1ccc(OCc3ccccc3)cc1)C(=O)N2 [10739/C04]
21.8

Continue with O=C1Nc2ccc(CCCl)cc2C1=Cc1ccc2ccccc2n1 [10740/G06]
−19.3

Continue with COc1ccc(Oc2cccc(C=C3C(=O)Nc4ccc(S(=O)(=O)N5CCOCC5)cc43)c2)cc1 [10739/F08]
7.0

Continue with COc1ccccc1C=C1C(=O)Nc2ccc(S(=O)(=O)N3CCOCC3)cc21 [10738/F09]
1.7

Continue with COc1ccc(C=C2C(=O)Nc3c(Br)cc(Br)cc32)cc1F [10737/A06]
−20.3

Continue with Cc1ccc(Oc2cccc(C=C3C(=O)Nc4ccc(CCCl)cc43)c2)cc1 [10738/G02]
−10.5

Continue with COC1CCCN1C=C1C(=O)Nc2ccc(S(=O)(=O)N3CCOCC3)cc21 (stereo not drawn) [10740/F04]
6.8

Continue with O=C1Nc2ccc(I)cc2C1=Cc1ccc2ccccc2n1 [10740/B06]
−5.9

Continue with O=C1Nc2c(Br)cc(Br)cc2C1=Cc1cc(O)cc(O)c1 [10738/A07]
−22.1

Continue with Cc1c(Br)cc(Br)c2c1C(=Cc1cccc(F)c1F)C(=O)N2 [10737/H05]
9.9

Continue with CCOc1ccc(C=C2C(=O)Nc3ccc(CCCl)cc32)cc1 [10737/G02]
8.7

Continue with COc1ccc(Oc2cccc(C=C3C(=O)Nc4c(Br)cc(Br)c(C)c43)c2)cc1 [10739/H08]
4.0

Continue with O=C1Nc2ccc(S(=O)(=O)Nc3ccc(C(F)(F)F)cc3)cc2C1=Cc1ccc(CO)o1 [10739/E11]
15.3

Continue with CNS(=O)(=O)c1ccc2c(c1)C(=Cc1ccsc1)C(=O)N2 [10740/D05]
−6.3

Continue with O=C1Nc2ccc(CCCl)cc2C1=Cc1ccc2ccccc2c1 [10737/G08]
16.4

Continue with O=C1Nc2ccc(I)cc2C1=Cc1ccoc1 [10739/B10]
−10.1

Continue with Cc1[nH]c2ccccc2c1C=C1C(=O)Nc2ccc(CCCl)cc21 [10740/G08]
−0.5

Continue with Cn1cc(C=C2C(=O)Nc3ccc(S(=O)(=O)Nc4ccc(C(F)(F)F)cc4)cc32)c2ccccc21 [10740/E07]
34.4

Continue with CCCOc1ccc(C=C2C(=O)Nc3ccc(S(=O)(=O)N4CCOCC4)cc32)cc1 [10738/F11]
15.8

Continue with O=C1Nc2ccc(CCCl)cc2C1=Cc1cccc(Oc2cccc(C(F)(F)F)c2)c1 [10737/G11]
11.7

Continue with O=C1Nc2c(Br)cc(Br)cc2C1=Cc1cc(O)c(O)c(O)c1 [10739/A07]
4.1

Continue with Cc1ccc(Oc2cccc(C=C3C(=O)Nc4ccc(I)cc43)c2)cc1 [10738/B02]
−8.5

Continue with Cc1c(Br)ccc2c1C(=Cc1ccc(OCCCN(C)C)cc1)C(=O)N2 [10739/C09]
10.0

Continue with O=C1Nc2ccc(S(=O)(=O)N3CCOCC3)cc2C1=Cc1cccc(O)c1O [10738/F06]
−12.6

Continue with CCCOc1ccc(C=C2C(=O)Nc3ccc(S(=O)(=O)Nc4ccc(C(F)(F)F)cc4)cc32)cc1 [10738/E11]
10.2

Continue with Cc1c(Br)ccc2c1C(=Cc1cnc3ccccc3c1)C(=O)N2 [10740/C02]
−5.9

Continue with CNS(=O)(=O)c1ccc2c(c1)C(=Cc1cc(F)ccc1F)C(=O)N2 [10737/D04]
12.0

Continue with O=C1Nc2ccc(CCCl)cc2C1=Cc1cccc(O)c1O [10738/G06]
−52.4

Continue with O=C1Nc2ccc(I)cc2C1=Cc1cccc(Oc2ccc(Cl)c(Cl)c2)c1 [10738/B03]
−1.2

Continue with Cc1c(Br)ccc2c1C(=Cc1cccc(Oc3ccc(Cl)c(Cl)c3)c1)C(=O)N2 [10738/C03]
28.0

Continue with CNS(=O)(=O)c1ccc2c(c1)C(=Cc1ccc(OCCCN(C)C)cc1)C(=O)N2 [10739/D09]
−32.8

Continue with O=C1Nc2ccc(S(=O)(=O)N3CCOCC3)cc2C1=Cc1ccc(OCc2ccccc2)cc1 [10739/F04]
26.3

Continue with O=C1Nc2ccc(S(=O)(=O)N3CCOCC3)cc2C1=Cc1ccc2ccccc2c1 [10737/F08]
20.7

Continue with COc1ccc(Oc2cccc(C=C3C(=O)Nc4ccc(S(=O)(=O)Nc5ccc(C(F)(F)F)cc5)cc43)c2)cc1 [10739/E08]
17.2

Continue with O=C1Nc2ccc(I)cc2C1=Cc1ccsc1 [10740/B05]
−11.6

Data provenance: patent US20020026053A1
